# key: entry, value: Activity
Target: UniProt:O77239
Sequence (O77239 as listed by the source): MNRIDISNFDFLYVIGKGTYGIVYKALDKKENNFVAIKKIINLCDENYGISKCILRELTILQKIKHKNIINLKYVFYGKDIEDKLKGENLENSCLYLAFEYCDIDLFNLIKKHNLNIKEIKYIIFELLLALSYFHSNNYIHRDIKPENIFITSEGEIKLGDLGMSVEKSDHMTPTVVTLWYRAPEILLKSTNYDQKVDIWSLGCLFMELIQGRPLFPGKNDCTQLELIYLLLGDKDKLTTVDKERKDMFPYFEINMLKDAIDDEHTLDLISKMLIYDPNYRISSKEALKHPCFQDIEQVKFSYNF
Assay: Inhibition of plasmodium falciparum PK6 assessed as remaining activity at 1 uM incubated for 2 hrs by luciferin-based luminescence assay relative to control

CHEMICAL_STRUCTURE | RESULT
O=C(Nc1ccc(F)cc1F)Nc1ccc(Oc2ncnc3ccsc23)cc1F | 61%
COc1cc2nccc(Oc3ccc(NC(C)=O)c(F)c3)c2cc1OC | 26%
O=C(Nc1ccc(F)cc1F)Nc1ccc(Oc2ccnc(Cl)n2)cc1F | 98%
COc1cc2nccc(Oc3ccc(NC(=O)Nc4ccccc4)c(F)c3)c2cc1OC | 1%

Under UniProt:O77239: Activity value of COc1cc2nccc(Oc3cccc(F)c3)c2cc1OC ? 84%

Under UniProt:O77239: Activity value of O=C(Nc1ccc(F)cc1F)Nc1ccc(Oc2ncnc3sccc23)cc1F ? 80%
